Data credit: PubChem BioAssay (NCI)

test system: UO-31 renal; assay: NCI tumour cell line growth inhibition, 48 h
property: TGI

Completed entries (count: 5):
compound	target-or-test-system	TGI
COc1ccc(S(=O)Cc2cc(OC)c(OC)c(OC)c2)cc1 (stereo unspecified)	UO-31 renal	> 100 µM
CCOC(=O)NC(=O)c1cn(CCCOC(=O)CCCCCCCCC(=O)OCCCn2cc(C(=O)NC(=O)OCC)c(=O)n(C)c2=O)c(=O)n(C)c1=O	UO-31 renal	> 100 µM
COC1=CC(=O)c2c(ccc3ncnc(N)c23)C1=O	UO-31 renal	5.09 µM
C[C@]12CC[C@H](O)CC1=CC[C@@H]1C2CC[C@]2(C)c3n[nH]nc3CC12 (stereo partly specified)	UO-31 renal	> 100 µM
COC(=O)[C@](NC(=O)OCc1ccccc1)([C@@H](C)S(=O)c1ccc(C)cc1)C(F)(F)F (stereo partly specified)	UO-31 renal	95.9 µM

Task item: Given the entry Nc1nc2[nH]c(=O)cnc2c(=O)[nH]1 , report its measured TGI.
Reply: > 125 µM

Task item: Given the entry Cc1nc2c(n1CC(C)C)C(=O)c1ccccc1C2=O , report its measured TGI.
Reply: > 100 µM

Task item: Given the entry CCNCCCn1c2c(c3ccc(F)cc3c1=O)C(=O)c1cc(OC)cnc1-2 , report its measured TGI.
Reply: 0.568 µM

Task item: Given the entry C=C1C(=O)O[C@@H]2O[C@@]3(C)CC[C@H]4[C@H](C)CC[C@@H]1[C@@]24O3 , report its measured TGI.
Reply: 63 µM

Task item: Given the entry C=CCc1cc(OC)c2c(c1)C(OC(C)=O)CC(c1ccc(OC)c(OC)c1)O2 (stereo unspecified) , report its measured TGI.
Reply: > 100 µM

Task item: Given the entry CCCOP1(=O)C=C(O)C(Cl)=C(C)C1 (stereo unspecified) , report its measured TGI.
Reply: > 100 µM

----------
# GI50 per record follows
test system: SN12C renal; assay: NCI tumour cell line growth inhibition, 48 h

Completed entries (count: 3):
compound-smiles	GI50
COc1cc(C(=O)c2c(-c3ccccc3)oc3c(OC)cccc23)cc(OC)c1O	1.46 µM
CC(=O)[CH-]C(=O)c1ccccc1.CC(=O)[CH-]C(=O)c1ccccc1.CCN(CC)CC[O-].CCN(CC)CC[O-].Cl.[Hf+4]	> 100 µM
COc1ccc(-c2c(-c3cc(OC)c(OC)c(OC)c3)nc3sc(C4CC4)nn23)cc1OC	10.7 µM

Task item: Given the entry CCNCCCn1c2c(c3ccc(F)cc3c1=O)C(=O)c1cc(OC)cnc1-2 , report its measured GI50.
Reply: 0.151 µM

Task item: Given the entry Nc1ccccc1C#C/C=C\C#Cc1cnccn1 , report its measured GI50.
Reply: 4.33 µM

----------
test system: HT29 colon; assay: NCI tumour cell line growth inhibition, 48 h; in the data active = GI50 below about 0.43 µM; inactive = the rest
Return exactly one item of True = active, False = inactive

Recorded results for 6 molecules are shown here.
molecule	target-or-test-system	cat
C=CCn1c(SCC(=O)Nc2ccc(C(=O)/C=C/c3cc(OC)c(OC)c(OC)c3)cc2)nnc1-c1ccc(Cl)cc1	HT29 colon	False
Cc1c([C@H](C(Cl)Cl)[C@H](O)[C@H]2C[C@H](C)C(=O)O2)ccc2c1C(=O)[C@H]1[C@H]2C[C@@H](Br)[C@@]23O[C@@H](CO[C@H]2O)CC13C (some centres undefined)	HT29 colon	True
COC(=O)C1=C(OC(=O)c2ccccc2)C(C(=O)OC)[C@]2(O)[C@@H](C(=O)OC)C1CC(c1ccccc1OC)[C@@H]2C(=O)OC (some centres undefined)	HT29 colon	False
O=C1NC(=O)/C(=C/c2c(Cl)nc3sccn23)S1	HT29 colon	False
CN1CCCC1c1cccnc1.O=C(O)c1ccccc1O.O=C([O-])c1ccccc1[OH2+].O=C([O-])c1ccccc1[OH2+].O=C([O-])c1ccccc1[OH2+].[Cu+2] (centres undefined)	HT29 colon	False
N#C/C(=C\c1cn(Cc2ccccc2)c2ccccc12)C(=O)Nc1ncc(Cc2ccccc2Cl)s1	HT29 colon	False

Task item: Please share the test call associated with CN(C)c1ccc(Nc2ncnc3ccccc23)cc1 .
Reply: False

Task item: Please share the test call associated with O=C(/C=C/c1cc2ccccc2[nH]c1=O)c1ccc(Cl)cc1 .
Reply: False

Task item: Please share the test call associated with CNC(=O)C(CCc1ccccc1)NC(=O)C(CC(=O)NO)CC(C)C (centres undefined) .
Reply: False

----------
tested on: CAKI-1 renal; assay: NCI tumour cell line growth inhibition, 48 h
property: TGI

Task item: Given the entry COc1ccc(C23OCC(Cc4cc(OC)c(OC)cc42)C3COC(C)=O)cc1OC (stereo not drawn) , report its measured TGI.
Reply: > 100 µM

----------
system: OVCAR-4 ovarian; assay: NCI tumour cell line growth inhibition, 48 h
# GI50 per record follows

Completed entries (count: 3):
compound	property	observed-value
COc1ccc2c(c1)oc1c(C)c3c(c(C)c12)C(=O)N(N)C3=O	GI50	> 100 µM
C=C1CC2(OC1=O)C(=O)N(C)c1ccc(I)cc12 (stereo unspecified)	GI50	1.27 µM
CCCSc1ccc2nc(NC(=O)OC)[nH]c2c1	GI50	0.792 µM

Task item: Given the entry O=C1NC(=O)/C(=C/c2c(Cl)nc3sccn23)S1 , report its measured GI50.
Reply: > 100 µM

Task item: Given the entry COc1cc(/C=C/C(=O)c2ccc(Nc3nc(Nc4ccc(F)cc4)nc(Nc4ccc(Cl)cc4)n3)cc2)cc(OC)c1OC , report its measured GI50.
Reply: 6.75 µM

Task item: Given the entry O=C(NC(=S)Nc1ccccn1)c1ccccc1 , report its measured GI50.
Reply: 24.4 µM

----------
system: LOX IMVI melanoma; assay: NCI tumour cell line growth inhibition, 48 h
property: TGI

Completed entries (count: 4):
compound	TGI
COc1ccc(N2C(=O)C3c4[nH]c5ccccc5c4C4CCC(c5ccccc5)CC4C3C2=O)cc1 (stereo not given)	> 54.1 µM
C/C(=N\NC(=S)Nc1ccccc1)c1nc2ncccc2[nH]1	15.8 µM
COc1nc(NC2OC(COC(C)=O)C(OC(C)=O)C(OC(C)=O)C2OC(C)=O)c2c(OC(C)=O)c(C)c(=O)oc2n1 (stereo not given)	> 100 µM
COc1ccc(S(=O)Cc2cc(OC)c(OC)c(OC)c2)cc1 (stereo not given)	> 100 µM

# input for lookup
Task item: Given the entry CCCc1nc(N)nc(C(=O)Nc2cccc(C(F)(F)F)c2)c1CC , report its measured TGI.
Reply: > 100 µM

----------
tested on: OVCAR-3 ovarian; experiment: NCI tumour cell line growth inhibition, 48 h
property: TGI (µM)
Numeric only. Scale: µM

compound-smiles	units-of-measure	TGI
C=CCn1c(SCC(=O)Nc2ccc(C(=O)/C=C/c3cc(OC)c(OC)c(OC)c3)cc2)nnc1-c1ccc(Cl)cc1	µM	5.93
O=[N+]([O-])c1ccc(C(Br)c2ccc([N+](=O)[O-])cc2)cc1	µM	24.3
COc1ccc(C(=C[N+](=O)[O-])c2ccc(OC)cc2)cc1	µM	46.1

Task item: Given the entry N#C/C(=C\c1cn(Cc2ccccc2)c2ccccc12)C(=O)Nc1ncc(Cc2ccccc2Cl)s1 , report its measured TGI.
Reply: 3.62

----------
system: DMS 114 small cell lung; assay: NCI tumour cell line growth inhibition, 48 h
# TGI per record follows

Completed entries (count: 6):
compound	TGI
O=[N+]([O-])c1ccc2[nH]c3c(-c4ccccc4)nccc3c2c1	> 87.2 µM
CCOC(=O)/C(=C\c1ccccc1)C(=O)CCN1CCOCC1	14.6 µM
CC(C)=CCCC(C)[C@H]1CC(O)C2(C)C3=CCC4C(C)(C)[C@@H](O)CC[C@]4(C)C3=CC[C@]12C (some centres undefined)	33.5 µM
CN(C)c1[se]nc2c1c(=O)n(C)c(=O)n2C	> 100 µM
COC(=O)C1Cc2c([nH]c3ccccc23)C(C2CCCCC2)N1 (centres undefined)	> 100 µM
CCCCC1CC(c2ccc(Cl)cc2)=NO1 (centres undefined)	> 100 µM

Task item: Given the entry CCOC(=O)C1C(c2ccccc2)=C(c2ccccc2)C(c2ccccc2)=C1c1ccccc1 , report its measured TGI.
Reply: > 100 µM

Task item: Given the entry O=C(c1ccc(Cl)cc1Cl)N(/N=C/C=C/c1ccccc1)c1nnc(-c2ccccc2)c(-c2ccccc2)n1 , report its measured TGI.
Reply: > 100 µM

Task item: Given the entry CCCc1nc(N)nc(C(=O)Nc2cccc(C(F)(F)F)c2)c1CC , report its measured TGI.
Reply: > 100 µM

----------
test system: SK-OV-3 ovarian; assay: NCI tumour cell line growth inhibition, 48 h; in the data active = GI50 below about 0.43 µM; inactive = the rest
Return exactly one item of 1 = active, -1 = inactive

Recorded results for 2 compounds are shown here.
compound	cat
Cc1ccc(/C(=N/NS(=O)(=O)c2ccc([N+](=O)[O-])cc2)Sc2cc(Cl)c(C)cc2S(N)(=O)=O)cc1	-1
N#Cc1c(-c2ccc(Cl)cc2)csc1NC(=O)Nc1ccc(Cl)c(C(F)(F)F)c1	-1

Task item: Please share the test call associated with CC1(C)CCC2(CC1)N[C@@H](C(=O)N[C@@H]1CC[C@@H](C(N)=O)OC1)[C@H](c1ccnc(Cl)c1F)[C@]21C(=O)Nc2cc(Cl)ccc21 .
Reply: -1

Task item: Please share the test call associated with COC(=O)C1=C(OC(=O)c2ccccc2)C(C(=O)OC)[C@]2(O)[C@@H](C(=O)OC)C1CC(c1ccccc1OC)[C@@H]2C(=O)OC (stereo not given in full) .
Reply: -1

Task item: Please share the test call associated with CCOC(=O)c1ccc2c(c1)[n+](=O)c(C(=O)C1CCCS1)c(C(F)(F)F)n2[O-] (stereo not given) .
Reply: -1

Task item: Please share the test call associated with O=C(NC(=S)Nc1ccccn1)c1ccccc1 .
Reply: -1
